These data points were gathered from patent US20070099915A1.

Please provide measured pIC50 for the entries that follow.
Target Of Assay: Full-length wild type HIV-1 integrase (SF1) (Human immunodeficiency virus type 1 group M subtype B, UniProt P04585)
Construct: made in house; host or cells: E. coli BL21 (DE3)
Method: Integrase strand-transfer scintillation proximity assay
Type: biochemical
Test Settings: strand-transfer SPA, 246 nM integrase, 50 nM host DNA, 37° C., 50 min; read-out: IC50
// scale note: pIC50 = -log10(conc_M); give the bare number

[Q] State its pIC50: C[C@@H]1CN(Cc2cn(Cc3ccc(F)cc3)c3cnc4c(c23)CCN(O)C4=O)C[C@H](C)O1
[A] 8.04

[Q] Fill in pIC50 for record O=C1c2ncc3c(c(CCCO)cn3Cc3ccc(F)cc3)c2CCN1O
[A] 7.89

[Q] Fill in reported pIC50 for this entry: COCCOCCCc1cn(Cc2ccc(F)cc2)c2cnc3c(c12)CCN(O)C3=O
[A] 7.85

[Q] Please report the measured pIC50 for O=C1c2ncc3c(c(CCNCCC(F)(F)F)cn3Cc3ccc(F)cc3)c2CCN1O
[A] 7.77

[Q] Identify the reported pIC50 for the following entry. O=c1c2ncc3c(c(-c4ccccn4)cn3Cc3ccc(F)cc3)c2ccn1O
[A] 7.54

[Q] Consider the compound N#Cc1ccccc1Cn1ccc2c3c(ncc21)C(=O)N(O)CC3 and give its recorded pIC50.
[A] 6.90

[Q] Give a short answer stating reported pIC50 for CCCOCCOCc1cn(Cc2ccc(F)cc2)c2cnc3c(c12)CCN(O)C3=O .
[A] 7.77

[Q] Respond only with pIC50 recorded for CCOCCOCc1cn(Cc2ccc(F)cc2)c2cnc3c(c12)CCN(O)C3=O
[A] 7.48

[Q] Consider the compound O=C1c2ncc3c(c(COCC4CCC4)cn3Cc3ccc(F)cc3)c2CCN1O . State its measured pIC50.
[A] 8.00

[Q] Report pIC50 for CC(=O)c1cn(Cc2ccc(F)cc2)c2cnc3c(c12)CCN(O)C3=O
[A] 7.92

[Q] Return value of pIC50 for input O=C1c2ncc3c(c(Br)cn3Cc3ccc(F)cc3)c2CCN1O , no commentary.
[A] 7.77

[Q] Specify pIC50 for Cc1ncccc1COCc1cn(Cc2ccc(F)cc2)c2cnc3c(c12)CCN(O)C3=O and stop.
[A] 8.05

[Q] Please give the documented pIC50 of O=C1c2ncc3c(c(COC4CCOCC4)cn3Cc3ccc(F)cc3)c2CCN1O
[A] 7.38

[Q] State its pIC50: N#Cc1cc(Cn2ccc3c4c(ncc32)C(=O)N(O)CC4)ccc1F
[A] 8.05

[Q] Note pIC50 for the compound shown: Cc1cc2c(ncc3c2c(CN2CCN(C)C(=O)C2)cn3Cc2ccc(F)cc2)c(=O)n1O
[A] 8.00

[Q] Fill in reported pIC50 for this entry: O=C1c2ncc3c(c(CCO)cn3Cc3ccc(F)cc3)c2CCN1O
[A] 7.96

[Q] Return the recorded pIC50 value; entry: N#Cc1cn(Cc2ccc(F)cc2)c2cnc3c(c12)CCN(O)C3=O
[A] 7.70

[Q] Look up and report measured pIC50 for this entry: O=C1c2ncc3c(c(CCN4CCCC4)cn3Cc3ccc(F)cc3)c2CCN1O
[A] 7.62

[Q] Please give the documented pIC50 of CN(C)C(=O)[C@@H]1CCCN1Cc1cn(Cc2ccc(F)cc2)c2cnc3c(c12)CCN(O)C3=O
[A] 7.55

[Q] # return recorded pIC50 for entry CC(C)N(CCOCc1cn(Cc2ccc(F)cc2)c2cnc3c(c12)CCN(O)C3=O)C(C)C
[A] 7.64
